Biological target: Avi-KRAS G12D/Q25A (1-169) GppNHp/3×FLAG-PI3KCA (157-299) (Homo sapiens, UniProt P01116, G12D/Q25A)
Construct: Avi-KRAS G12D/Q25A (1-169) GppNHp
Sequence (P01116 1-169 isoform P01116-2 G12D/Q25A limits assumed): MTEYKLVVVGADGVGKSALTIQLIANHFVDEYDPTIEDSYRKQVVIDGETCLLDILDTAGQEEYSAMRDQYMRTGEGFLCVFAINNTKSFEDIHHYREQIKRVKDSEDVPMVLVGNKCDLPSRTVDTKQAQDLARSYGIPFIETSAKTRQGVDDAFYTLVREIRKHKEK
Experiment: HTRF PI3KCA-KRAS G12D/Q25A-GppNHp disruption assay
Conditions: 1 h incubation
pIC50: −log10 of the molar value.
Metric: pIC50

Example entries begin here.
- Molecule: "C[C@@H]1CNC[C@@H]1N(C)c1nc(OC[C@@]23CCCN2C[C@H](F)C3)nc2c(F)c(-c3ccc(F)c4sc(N)nc34)c(C(F)(F)F)cc12 [Compound 292]"
  pIC50: "5.00 to 6.00"
- Molecule: "C[C@H]1CN(c2nc(OC[C@@H]3CCCN3C)nc3c(F)c(-c4ccc(F)c5sc(N)nc45)c(Cl)cc23)CCN1 [Compound 84]"
  pIC50: "4.52 to 5.00"
- Molecule: "CN1C[C@H](F)C[C@H]1COc1nc(N2CCNCC2)c2cc(C(F)(F)F)c(-c3ccc(F)c4sc(N)nc34)c(F)c2n1 [Compound 140]"
  pIC50: "4.52 to 5.00"
- Molecule: "CN1CCC[C@H]1COc1nc(NC2CCCNC2)c2cc(Cl)c(-c3ccc(F)c4sc(N)nc34)c(F)c2n1 (stereo partly shown) [Compound 99]"
  pIC50: "4.52 to 5.00"
- Molecule: "C[C@@H]1C[C@@H](N(C)c2nc(OC[C@@]34CCCN3C[C@H](F)C4)nc3cc(-c4ccc(F)c5sc(N)nc45)c(C(F)(F)F)cc23)CN1 [Compound 336]"
  pIC50: "5.00 to 6.00"
- Molecule: "Nc1nc2c(-c3c(C(F)(F)F)cc4c(N[C@@H]5CCC6(CNC6)C5)nc(OCC56CCCN5CCC6)nc4c3F)ccc(F)c2s1 [Compound 334]"
  pIC50: "5.00 to 6.00"

Value of pIC50 reported for the molecule C[C@@H]1CN(c2nc(OC[C@]34CCCN3C[C@H](F)C4)nc3c(F)c(-c4ccc(F)c5sc(N)nc45)c(C(F)(F)F)cc23)C[C@H](C)N1 [Compound 215] is 4.52 to 5.00

Value of pIC50 reported for the molecule Nc1nc2c(-c3c(OC(F)F)cc4c(N5CCNCC5)nc(OCC56CCCN5CCC6)nc4c3F)ccc(F)c2s1 [Compound 234] is 5.00 to 6.00

Value of pIC50 reported for the molecule Nc1nc2c(-c3c(Cl)cc4c(N5CCNCC5)ncnc4c3F)ccc(F)c2s1 [Compound 1] is 4.52 to 5.00

Value of pIC50 reported for the molecule Nc1nc2c(-c3c(OC(F)(F)F)cc4c(N5CC6CCC(C5)N6)nc(OCC56CCCN5CCC6)nc4c3F)ccc(F)c2s1 [Compound 231] is 5.00 to 6.00

Value of pIC50 reported for the molecule CC(=O)N1CC(Nc2nc(OC[C@@H]3CCCN3C)nc3c(F)c(-c4ccc(F)c5sc(N)nc45)c(Cl)cc23)C1 [Compound 67] is 4.52 to 5.00

Value of pIC50 reported for the molecule Nc1nc2c(-c3c(C(F)(F)F)cc4c(N5CCC6(CCNC6)C5)nc(OCC56CCCN5CCC6)nc4c3F)ccc(F)c2s1 (stereo not shown) [Compound 327] is 5.00 to 6.00

Value of pIC50 reported for the molecule Fc1c(-c2ccc(F)c3scnc23)c(C(F)(F)F)cc2c(N3CC4CCC(C3)N4)nc(OCC34CCCN3CCC4)nc12 [Compound 375] is 4.52 to 5.00
